# Tested on: MDA-MB-231 tumors
# method_notes: in vivo
# Assay type: in vivo, nude mice
# applied_conditions: female, nude, mouse, in vivo, 1 h
Numbered stars: 1 amine (or outer) side, 2 acyl side, 3 side chain; on linkers, the order of the positions; unused ones are H or OH. Square brackets hold non-standard residues; d marks the D form. Peptide text beside a SMILES is read from it. * marks the point of attachment. DOTA = O=C(O)CN1CCN(CC(=O)O)CCN(CC(=O)*)CCN(CC(=O)O)CC1; Cha = N[C@@H](CC1CCCCC1)C(=O)O; X1 = O=C(CCC(=O)[*:2])CN[*:1]; 4Abz = Nc1ccc(C(=O)O)cc1; Nle = CCCC[C@H](N)C(=O)O; Ahx = NCCCCCC(=O)O
Hi there, I'd appreciate the recorded Uptake in Liver for every entry that follows.
Give bare numbers, in % ID/g.

Example cases with answers are listed next.
[
  {
    "compound": "CCCC[C@H](NC(=O)[C@H](Cc1c[nH]cn1)NC(=O)[C@H](CC1CCCCC1)NC(=O)[C@@H](NC(=O)[C@H](C)NC(=O)[C@H](Cc1c[nH]c2ccccc12)NC(=O)[C@H](CCC(N)=O)NC(=O)[C@H](CS)NC(=O)CNC(=O)CNC(=O)c1ccc(NC(=O)CN2CCN(CC(=O)O)CCN(CC(=O)O)CCN(CC(=O)O)CC2)cc1)C(C)C)C(=O)N[C@@H](CCSC)C(N)=O [^68Ga-DOTA-Abz-BN Tris-, metal not drawn] ({DOTA-4Abz}-GGCQWAV[Cha]H[Nle]M-NH2)",
    "Uptake in Liver, % ID/g": 2.28
  },
  {
    "compound": "CCCC[C@H](NC(=O)[C@H](Cc1c[nH]cn1)NC(=O)[C@H](CC1CCCCC1)NC(=O)[C@@H](NC(=O)[C@H](C)NC(=O)[C@H](Cc1c[nH]c2ccccc12)NC(=O)[C@H](CCC(N)=O)NC(=O)[C@H](CS)NC(=O)CNC(=O)CNC(=O)CCC(=O)CNC(=O)CN1CCN(CC(=O)O)CCN(CC(=O)O)CCN(CC(=O)O)CC1)C(C)C)C(=O)N[C@@H](CCSC)C(N)=O [^68Ga-DOTA-ALA-BN Tris-, metal not drawn] ({DOTA}-[X1]GGCQWAV[Cha]H[Nle]M-NH2)",
    "Uptake in Liver, % ID/g": 2.31
  },
  {
    "compound": "CCCC[C@H](NC(=O)[C@H](Cc1c[nH]cn1)NC(=O)[C@H](CC1CCCCC1)NC(=O)[C@@H](NC(=O)[C@H](C)NC(=O)[C@H](Cc1c[nH]c2ccccc12)NC(=O)[C@H](CCC(N)=O)NC(=O)[C@H](CS)NC(=O)CNC(=O)CNC(=O)CCCCCNC(=O)CN1CCN(CC(=O)O)CCN(CC(=O)O)CCN(CC(=O)O)CC1)C(C)C)C(=O)N[C@@H](CCSC)C(N)=O [^68Ga-DOTA-Ahx-BN Cyclen, metal not drawn] ({DOTA-Ahx}-GGCQWAV[Cha]H[Nle]M-NH2)",
    "Uptake in Liver, % ID/g": 1.02
  }
]

Next, consider the following compound.
Return Uptake in Liver (reported value) for this compound: CCCC[C@H](NC(=O)[C@H](Cc1c[nH]cn1)NC(=O)[C@H](CC1CCCCC1)NC(=O)[C@@H](NC(=O)[C@H](C)NC(=O)[C@H](Cc1c[nH]c2ccccc12)NC(=O)[C@H](CCC(N)=O)NC(=O)[C@H](CS)NC(=O)CNC(=O)CNC(=O)CCCCCNC(=O)CN1CCN(CC(=O)O)CCN(CC(=O)O)CCN(CC(=O)O)CC1)C(C)C)C(=O)N[C@@H](CCSC)C(N)=O [^68Ga-DOTA-Ahx-BN Tris-, metal not drawn] ({DOTA-Ahx}-GGCQWAV[Cha]H[Nle]M-NH2) 2.20
